Test system: Cryptococcus neoformans TIMM0354
Type: cell-based
Metric: MIC (μg/ml) C.n.

CCCCCCCCCCCCCC1CC(=O)N[C@@H](C)C(=O)N[C@@H](CCCN)C(=O)NCCC(=O)N[C@@H](CO)C(=O)N[C@@H](CO)C(=O)N[C@H](CC(N)=O)C(=O)N[C@@H]([C@@H](C)O)C(=O)NCC(=O)O1 (some centres unmarked) ... > 200 µg/mL

Attention now turns to another entry.
Item CCCCCCCCCCCCCC1CC(=O)N[C@@H](C)C(=O)N[C@@H](CCCN)C(=O)N[C@@H](CC(=O)O)C(=O)N[C@@H](CO)C(=O)N[C@@H](CO)C(=O)N[C@H](CC(N)=O)C(=O)N[C@H]([C@@H](C)O)C(=O)NCC(=O)O1 (mixture of isomers) with Cryptococcus neoformans TIMM0354 - MIC (μg/ml) C.n.?
6.25 µg/mL
